Assignment: determine reported ECmax; SRE-luciferase reporter for the given binders.
Target: T1, GPR39 (G protein coupled receptor 39) (UniProt O43194 1-453, limits assumed)
T1 sequence (looked up): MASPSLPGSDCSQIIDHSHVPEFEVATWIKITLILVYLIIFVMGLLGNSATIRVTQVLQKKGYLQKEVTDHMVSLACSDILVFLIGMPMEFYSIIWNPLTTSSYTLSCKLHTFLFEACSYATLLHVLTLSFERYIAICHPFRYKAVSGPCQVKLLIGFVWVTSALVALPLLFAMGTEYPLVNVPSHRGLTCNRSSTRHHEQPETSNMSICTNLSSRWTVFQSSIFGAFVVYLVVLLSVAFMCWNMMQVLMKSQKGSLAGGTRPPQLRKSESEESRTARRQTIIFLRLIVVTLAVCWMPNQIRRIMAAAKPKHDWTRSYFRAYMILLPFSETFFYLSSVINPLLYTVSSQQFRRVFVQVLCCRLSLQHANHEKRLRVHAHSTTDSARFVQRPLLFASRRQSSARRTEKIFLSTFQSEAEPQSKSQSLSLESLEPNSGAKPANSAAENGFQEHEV
Assay: cell-based or functional assay
Square brackets hold non-standard residues; d marks the D form. Ends that are not written are not given here. * marks the point of attachment. dPhe(4-CF3) = N[C@H](Cc1ccc(C(F)(F)F)cc1)C(=O)O; Tyr(3-Cl) = N[C@@H](Cc1ccc(O)c(Cl)c1)C(=O)O; dPhe(4-Me) = Cc1ccc(C[C@@H](N)C(=O)O)cc1; Trt = c1ccc(C(c2ccccc2)(c2ccccc2)*)cc1; Benzhydryl = c1ccc(C(c2ccccc2)*)cc1; Palmitoyl = CCCCCCCCCCCCCCCC(=O)*; Octanoyl = CCCCCCCC(=O)*

ECmax; SRE-luciferase reporter lookup needed for H(Trt)K(Octanoyl)[dPhe(4-CF3)]Y-OH [HKFY-76] , thanks.
14.2 -fold induction over basal

Now consider HK(Octanoyl)FY (not fully specified (residue 1)) [HKFY-10] .
14 -fold induction over basal

Entry to check: H(Benzhydryl)K(Octanoyl)[dPhe(4-Me)][Tyr(3-Cl)]-OH [HKFY-67]
10.2 -fold induction over basal

Moving on to H(Trt)K(Octanoyl)FYQNGARF (not fully specified (C-terminus)) [HKFY-41]
12.2 -fold induction over basal

Also H(Trt)K(Octanoyl)FW [HKFY-46] , if possible.
20 -fold induction over basal

Next record, please: H(Trt)K(Palmitoyl)FY-OH [HKFY-27]
20.4 -fold induction over basal
